# maps each entry to its growth inhibition
- Run Description: NCI Yeast Anticancer Drug Screen. Data for the mec2-1 strain (AID 157)
- Measurement Parameters: S. cerevisiae mec2-1 strain, at 50.0 µM, hits give high values
This is part of a sample that, as a whole, favours compounds with a hit. Of some 79,000 tested, about 15% had one in any assay.
Write the number in % without appending the unit.

These recorded examples may help you get a feel for the data.
Cc1cc(C)c(COCc2c(C)cc(C)cc2C)c(C)c1 = 10.1
Nc1nc2ncn(CC(O)COC(=O)c3ccccc3)c2c(=O)[nH]1 (centres undefined) = -8.85
COc1ccc(/C=C2\CCN(C(C)=O)C2=O)cc1 = -2.65

Supply reported growth inhibition belonging to this compound: CC(=O)Oc1ccc2c(c1)CCC1C2CCC2(C)CC(OC(C)=O)CC12 (centres undefined) -10.3

Supply reported growth inhibition belonging to this compound: CC1=C[P+](c2ccccc2)(c2ccccc2)C=C(C)O1 3.55

Supply reported growth inhibition belonging to this compound: CCCCCCC[CH2][Sn]1([CH2]CCCCCCC)[O]C(=O)c2cccnc2[O]1 7.3

Supply reported growth inhibition belonging to this compound: Cc1cc[n+]2c(c1)-c1cc(C)cc[n+]1CC2 1.15

Supply reported growth inhibition belonging to this compound: CCOC(=O)c1nc2c(Cl)c3ncccc3cc2[nH]c1=O 11.1

Supply reported growth inhibition belonging to this compound: CC(C)C1CCC2(C)C(CCC3C4(C)CCCC32OC4=O)C1 (centres undefined) -13.6

Supply reported growth inhibition belonging to this compound: Cc1c(C(=O)CC(=O)C(=O)NC2C3CC4CC(C3)CC2C4)[n+](=O)c2ccccc2n1[O-] (centres undefined) 0.8

Supply reported growth inhibition belonging to this compound: O=C(Nc1ccc(Cl)cc1)Nc1nnc2nc(CC(=O)c3cccc([N+](=O)[O-])c3Cl)c(=O)[nH]n12 11.4

Supply reported growth inhibition belonging to this compound: O=C(Nc1cccc2ccccc12)c1ccccc1F 16.8

Supply reported growth inhibition belonging to this compound: S=C=NC12CC3CC(CC(C3)C1)C2 0.6

Supply reported growth inhibition belonging to this compound: CN1COc2c3c(c4ccccc4c2C1)CN(C)CO3 2.35

Supply reported growth inhibition belonging to this compound: O=[N+]([O-])c1cnc(N(CCO)CCO)s1 -25.4

Supply reported growth inhibition belonging to this compound: Nc1c(I)cc([N+](=O)[O-])cc1I 2.6

Supply reported growth inhibition belonging to this compound: CN(C=C(C#N)C#N)c1ccccc1 -4.65

Supply reported growth inhibition belonging to this compound: COc1cc([C@@H]2OCC3C(c4ccc5c(c4)OCO5)OCC32)cc(OC)c1OC (some centres undefined) -17.2

Supply reported growth inhibition belonging to this compound: NC(N)=NS(=O)(=O)c1ccc(NC(=O)c2cccn3c(=O)c4ccccc4nc23)cc1 -2.5

Supply reported growth inhibition belonging to this compound: COc1cc([C@@H]2c3cc4c(cc3[C@@H](Nc3ccccc3C(=O)c3ccccc3)[C@H]3COC(=O)[C@H]23)OCO4)cc(OC)c1OC 9.95
